Entries and their Tumor/Blood values follow.
# System: CA20948 rat pancreatic tumor
# Parameters: species or system Lewis rats
# CONDITION_DESCRIPTION: in vivo, iv
Form: value (number only, do not type unit).

# count of solved cases: 3
# SUBSTANCE, Tumor/Blood
records = [
    ("cyclo(N-methyl)FYWDKV.Hcy.(CH2CO.(β-Dap)KCK.amide) [Peptide P829]", 13),
    ("cyclo(N-methyl)FYWDKV.Hcy.(CH2CO.(ε-K)GCKK.amide) [Peptide P723]", 5.4),
    ("cyclo(N-methyl)FYWDKV.Hcy.(CH2CO.(β-Dap)KCR.amide) [Peptide P832]", 13),
]

Here is another substance to look at.
The value of Tumor/Blood recorded for cyclo(N-methyl)FYWDKV.Hcy.(CH2CO.(δ-Dap)GCK.amide) [Peptide P772] when tested on CA20948 rat pancreatic tumor reads 7.2

Reference for the values: patent US7238340B1
